- experimentNotes: Lipophilicity, log D of the compound
- Type: physicochemical
- testParameters: octanol/water
I'd appreciate it if you could supply logD values for the items below.
Answers are plain numbers.

Required: logD, one value per molecule below.
1. Cc1noc(C)c1CCC1CCN(S(=O)(=O)C[C@](C)(C[C@H](C)c2ncc(F)cn2)N(O)C=O)CC1
2. Cc1noc(C)c1CCC1CCN(S(=O)(=O)CC2(N(O)C=O)CCOCC2)CC1

a:
1: 1.6; 2: 0.9

---

- experimentNotes: Intrinsic clearance in human liver microsomes
- Format: ADME, Microsome
I'd appreciate it if you could supply microsomal CLint values for the items below.
Give bare numbers, in µL/min/mg.

| sampleSmiles | reportedResult |
| --- | --- |
| Cc1cccnc1CCC1CCN(S(=O)(=O)CC2(N(O)C=O)CCOCC2)CC1 | 3.8 |

Required: microsomal CLint, one value per compound below.
1. Cc1noc(C)c1CCC1CCN(S(=O)(=O)CC2(N(O)C=O)CCN(C(=O)N3CCC3)CC2)CC1
2. Cc1noc(C)c1CCC1CCN(S(=O)(=O)C[C@](C)(C[C@H](C)c2ncc(F)cn2)N(O)C=O)CC1
3. Cc1noc(C)c1CCC1CCN(S(=O)(=O)CC2(N(O)C=O)CCN(C(=O)C3CCC3)CC2)CC1

a:
1: 31; 2: 29.4; 3: 65

---

- experimentNotes: Clearance in rat at 2 mg/kg, iv and 3 to 10 mg/kg, po
- Type: ADME, organism-based
- testParameters: in vivo
readoutType: clearance (mL/min/kg)
Answers are plain numbers, in mL/min/kg.

q: I would be grateful if you could share the reported clearance for `Cc1noc(C)c1CCC1CCN(S(=O)(=O)CC2(N(O)C=O)CCOCC2)CC1` .
a: 24

---

I'd appreciate it if you could supply bioavailability values for the items below.
- experimentNotes: Oral bioavailability in rat
- Assay type: ADME, organism-based
- testParameters: in vivo
One number for each entry, in %.

| sampleSmiles | reportedResult |
| --- | --- |
| Cc1noc(C)c1CCC1CCN(S(=O)(=O)C[C@](C)(C[C@H](C)c2ncc(F)cn2)N(O)C=O)CC1 | 1 |

# context switch: different compound, same bioavailability
q: I would be grateful if you could share the reported bioavailability for `Cc1noc(C)c1CCC1CCN(S(=O)(=O)CC2(N(O)C=O)CCOCC2)CC1` .
a: 45

---

- experimentNotes: Intrinsic clearance in human liver microsomes
- Format: ADME, Microsome
I'd appreciate it if you could supply microsomal CLint values for the items below.
Answers are plain numbers, in µL/min/mg.

| sampleSmiles | reportedResult |
| --- | --- |
| O=CN(O)C1(CS(=O)(=O)N2CCC(CCc3ccccc3)CC2)CCOCC1 | 8.8 |
| Cc1noc(C)c1CCC1CCN(S(=O)(=O)CC2(N(O)C=O)CCOCC2)CC1 | 3.1 |

# context switch: different molecule, same microsomal CLint
q: I would be grateful if you could share the reported microsomal CLint for `Cc1noc(C)c1CCC1CCN(S(=O)(=O)CC2(N(O)C=O)CCC(F)(F)CC2)CC1` .
a: 13

---

- experimentNotes: Absolute bioavailability in mouse
- Format: ADME, organism-based
- testParameters: in vivo
readoutType: bioavailability (%)
Numbers only, in %.

q: I would be grateful if you could share the reported bioavailability for `Cc1noc(C)c1CCC1CCN(S(=O)(=O)CC2(N(O)C=O)CCOCC2)CC1` .
a: 54

---

- system: A disintegrin and metalloproteinase with thrombospondin motifs 4 (Homo sapiens)
- Sequence (O75173 whole entry): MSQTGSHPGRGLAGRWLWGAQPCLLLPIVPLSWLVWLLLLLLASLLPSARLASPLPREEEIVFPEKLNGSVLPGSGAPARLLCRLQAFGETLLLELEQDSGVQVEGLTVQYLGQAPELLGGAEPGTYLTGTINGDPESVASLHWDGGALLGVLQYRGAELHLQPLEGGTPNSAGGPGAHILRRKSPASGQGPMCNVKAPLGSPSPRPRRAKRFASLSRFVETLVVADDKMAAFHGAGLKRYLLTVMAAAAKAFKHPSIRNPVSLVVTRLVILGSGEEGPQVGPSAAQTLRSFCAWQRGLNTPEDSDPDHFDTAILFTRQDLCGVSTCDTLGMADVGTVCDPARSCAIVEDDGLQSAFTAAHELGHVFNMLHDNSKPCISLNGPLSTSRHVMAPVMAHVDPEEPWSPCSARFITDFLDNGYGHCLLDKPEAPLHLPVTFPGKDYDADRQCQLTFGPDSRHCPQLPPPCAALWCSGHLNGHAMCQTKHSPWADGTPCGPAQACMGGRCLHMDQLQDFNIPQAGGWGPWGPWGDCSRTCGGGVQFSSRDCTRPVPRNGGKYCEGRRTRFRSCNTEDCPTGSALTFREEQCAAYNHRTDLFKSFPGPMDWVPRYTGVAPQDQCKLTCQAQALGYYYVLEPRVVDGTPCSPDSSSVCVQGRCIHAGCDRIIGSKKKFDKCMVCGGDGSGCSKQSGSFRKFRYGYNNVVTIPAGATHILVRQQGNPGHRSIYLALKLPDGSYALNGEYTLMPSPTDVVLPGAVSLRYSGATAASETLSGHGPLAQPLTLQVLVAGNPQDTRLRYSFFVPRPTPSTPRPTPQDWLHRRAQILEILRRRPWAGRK
I'd appreciate it if you could supply log10 IC50 values for the items below.
Base-10 log of IC50, unit µM.

Required: log10 IC50, one value per compound below.
1. Cc1cc(Cl)ccc1CCC1CCN(S(=O)(=O)CC2(N(O)C=O)CCN(C(=O)C3CCC3)CC2)CC1
2. Cc1noc(C)c1CCC1CCN(S(=O)(=O)CC2(N(O)C=O)CCC(F)(F)CC2)CC1
3. O=CN(O)C1(CS(=O)(=O)N2CCC(CCc3ccc(F)cc3C(F)(F)F)CC2)CCN(C(=O)C2CCC2)CC1

a:
[-2.92, -1.70, -2.06]

Required: log10 IC50, one value per compound below.
1. O=CN(O)C1(CS(=O)(=O)N2CCN(c3ccc(F)cc3)CC2)CCC1
2. Cc1noc(C)c1CCC1CCN(S(=O)(=O)CC2(N(O)C=O)CCS(=O)(=O)CC2)CC1
3. Cc1noc(C)c1CCC1CCN(S(=O)(=O)CC2(N(O)C=O)CCCC2)CC1
4. CC(=O)N1CCC(CS(=O)(=O)N2CCC(CCc3c(C)noc3C)CC2)(N(O)C=O)CC1
5. Cc1noc(C)c1CCC1CCN(S(=O)(=O)CC2(N(O)C=O)CCOC(C)(C)C2)CC1 (centres undefined)
6. CC(C)(CS(=O)(=O)N1CCN(c2ccc(F)cc2)CC1)N(O)C=O

a:
[-1.04, -1.80, -1.28, -1.62, -2.01, -1.04]

Required: log10 IC50, one value per compound below.
1. Cc1ccncc1CCC1CCN(S(=O)(=O)CC2(N(O)C=O)CCOCC2)CC1
2. Cc1cc(C)c(CCC2CCN(S(=O)(=O)CC3(N(O)C=O)CCOCC3)CC2)cn1
3. Cc1cc(C(F)(F)F)ccc1CCC1CCN(S(=O)(=O)CC2(N(O)C=O)CCN(C(=O)C3CCC3)CC2)CC1
4. Cc1ccccc1CCC1CCN(S(=O)(=O)CC2(N(O)C=O)CCOCC2)CC1
5. Cc1cc(Cl)ccc1CCC1CCN(S(=O)(=O)CC2(N(O)C=O)CCOCC2)CC1
6. Cc1noc(C)c1CCC1CCN(S(=O)(=O)CC2(N(O)C=O)CCN(S(C)(=O)=O)CC2)CC1
7. Cc1cc(F)ccc1CCC1CCN(S(=O)(=O)CC2(N(O)C=O)CCOCC2)CC1
8. Cc1cccnc1CCC1CCN(S(=O)(=O)CC2(N(O)C=O)CCOCC2)CC1

a:
1: -0.96; 2: -0.89; 3: -2.92; 4: -2.25; 5: -2.57; 6: -1.54; 7: -2.35; 8: -1.00

Required: log10 IC50, one value per compound below.
1. Cc1noc(C)c1CCC1CCN(S(=O)(=O)CC2(N(O)C=O)CCOCC2)CC1
2. CS(=O)(=O)c1ccc(CCC2CCN(S(=O)(=O)CC3(N(O)C=O)CCOCC3)CC2)c(C2CC2)c1

a:
[-1.59, -2.85]

---

- experimentNotes: Apparent permeability across basolateral to apical side in human Caco2 cells at 10 uM
- Format: ADME, cell-based
- testParameters: Caco-2
readoutType: Papp B→A at 10 µM
Write down the value, and be sure its unit follows.

q: I would be grateful if you could share the reported Papp B→A at 10 µM for `Cc1noc(C)c1CCC1CCN(S(=O)(=O)C[C@](C)(C[C@H](C)c2ncc(F)cn2)N(O)C=O)CC1` .
a: 10.9 ×10⁻⁶ cm/s

---

- experimentNotes: Thermodynamic solubility of the compound in phosphate buffer at pH 7.4 after 24 hrs
- Type: physicochemical
- testParameters: read-out: Therm_solubility
readoutType: solubility thermodynamic at 24 h (µM)
One number for each entry, in µM.

q: I would be grateful if you could share the reported solubility thermodynamic at 24 h for `Cc1noc(C)c1CCC1CCN(S(=O)(=O)C[C@](C)(C[C@H](C)c2ncc(F)cn2)N(O)C=O)CC1` .
a: 150

Measured values drawn from ChEMBL document CHEMBL1781898 for this set.
